Data credit: ChEMBL document CHEMBL1201862

# Tested on: SNB-19
# assay_explanation: NCI tumour cell line growth inhibition, 48 h
Calls of active or inactive are those of the source. Rule as the data show it: active = GI50 up to about 1.1 µM and inactive = higher.
Response enum: 1 (yes) for active, 0 (no) for inactive

Q: Assay outcome for `O=c1[nH]c(C2CCCCC2)nc2ccc(Cl)cc12` : what was it?
A: 0 (no)

Q: # fetch the recorded call for `CC(C)OP(=O)(OC(C)C)c1nc(-c2ccccc2)n(-c2ccc([N+](=O)[O-])cc2)n1` here
A: 0 (no)

Q: Returns: the outcome recorded for CC(=O)C(C(C)=O)=C1CCCC(O)O1 (stereo not drawn) in this assay.
A: 0 (no)

Q: Record lookup: outcome of this test for `COc1ccc(/C(Cl)=C(\C=O)c2ccc(Cl)c(Cl)c2)cc1` ?
A: 0 (no)

Q: Dear colleague, could you share the recorded outcome for `Cc1cc(C)nc(NS(=O)(=O)c2ccc(Nc3c4ccccc4nc4c(C(=O)NCCN(C)C)ccc(Cl)c34)cc2)n1` when you have a moment?
A: 0 (no)

Q: Any idea what this test logged for `CC1(C)[C@@H](Cn2cnc3c(N)ncnc32)CC[C@@]1(C)CO` ?
A: 0 (no)

Q: What is the recorded call for this compound in the test? `C/C(CN1C(=O)c2ccccc2C1=O)=N\NS(=O)(=O)c1ccc(Cl)cc1`
A: 0 (no)

Q: Per the records of this test, what outcome belongs to `C/C(=N/NC(=O)CC(=O)N(C(=O)c1ccccc1Cl)c1ccc(C)cc1)c1cc2ccccc2oc1=O` ?
A: 0 (no)

Q: What call does the record list for `C[C@]12CC[C@H]3[C@@H](CCC4=C(Br)C(=O)C=C[C@@]43O)[C@@H]1CCC2=O` ?
A: 0 (no)

Q: Would you mind telling me which call this test gave CCCCC1CCCCCCc2[nH]c(/C=C3\N=C(c4ccc[nH]4)C=C3OC)cc21 (stereo not drawn) ?
A: 1 (yes)

Q: Name the outcome recorded for `CN(C)CCCNC(=O)c1cc(NC(=O)c2cc(NS(=O)(=O)c3ccc4c(c3)C(=O)c3ccccc3C4=O)cn2C)cn1C` in the assay.
A: 0 (no)

Q: Name the outcome recorded for `COc1cccc2c(NNc3ccc(Cl)cc3)c3ccc([N+](=O)[O-])cc3nc12` in the assay.
A: 0 (no)

Q: What is the recorded call for this compound in the test? `CN1CCC2(CC1)/C(=N/C1CCCCC1)NC(=S)N2c1ccccc1`
A: 0 (no)

Q: GET /call?item= N#CC1CCCCOCCOCCOCCOCCOCCCCCC1=O (stereo not drawn) returns the recorded outcome of this test.
A: 0 (no)

Q: Field: outcome | Entry: O=C(O/C=C\OC1CCCC1(c1ccccc1)c1ccccc1)c1ccccc1 (stereo not drawn)
A: 0 (no)

Q: How did this test come out for COc1c(C2=NC(C(C)C)CO2)ccc2ccccc12 (stereo not drawn) ?
A: 0 (no)

Q: Look up the recorded call for `Cc1sc2ccccc2[n+]1CCC(=O)O` in this test.
A: 0 (no)

Q: Check the results log: what was the call for `C=CCOc1ccc(N)c([N+](=O)[O-])c1` ?
A: 0 (no)

Q: Please state the recorded outcome for this compound: CC1=C[P+](Cc2ccccc2)(c2ccccc2)CC1 (stereo not drawn)
A: 0 (no)

Q: For this compound, state the assay outcome: O=S(=O)(O)C(CO)c1ccccc1.O=S(=O)(O)Cc1ccccc1 (stereo not drawn)
A: 0 (no)

Q: What did the test return for `Cc1nc2ccc(S(=O)(=O)NS(=O)(=O)c3ccc(-c4ccccc4)cc3)cc2c(=O)n1NS(=O)(=O)c1ccc(-c2ccccc2)cc1` ?
A: 0 (no)

Q: Would you mind telling me which call this test gave `CC(C)Cc1c(C#N)c(C#N)c(N)n1Cc1ccccc1` ?
A: 0 (no)

Q: Which result was noted for this compound in the test: `COC(=O)c1cc(=O)nc2cc3cccccc3n12`
A: 0 (no)

Q: Give the logged outcome of this assay for the following compound: `COC(=O)/C=C/c1ccccc1N=[S@](C)(=O)c1ccc(C)cc1`
A: 0 (no)

Q: Give the logged outcome of this assay for the following compound: `CC1(C)OCN(c2ccc(N3CCOCC3)cc2)Cn2c1nc1ccccc12`
A: 0 (no)

Q: Check the results log: what was the call for `O=c1cc(-c2ccccc2)nc2[nH]ccn12` ?
A: 0 (no)

Q: Would you mind telling me which call this test gave COC(=O)c1c2c(cc3c1CC1(Cc4cc5c(c(C=O)c4C1)CCC5)C3)CCC2 (stereo not drawn) ?
A: 0 (no)

Q: What did the test return for `O=C(NCCCOC(=O)CCCCCCCCC(=O)OCCCNC(=O)NC(=O)c1c[nH]c(=O)[nH]c1=O)NC(=O)c1c[nH]c(=O)[nH]c1=O` ?
A: 0 (no)

Q: How was `O=C(OCc1ccccc1)N(CCCCN(CCCNC(=O)C(F)(F)F)C(=O)OCc1ccccc1)CCCNC(=O)C(F)(F)F` classified in this test?
A: 0 (no)

Q: Per the assay record, what outcome was assigned to CC(NNC(=O)c1ccncc1)c1ccccc1 (stereo not drawn) ?
A: 0 (no)

Q: Test call for this compound, please: `Cc1nc(Nc2ccc(Cl)cc2Cl)sc1C(=O)Nc1ccccc1`
A: 0 (no)

Q: // param item: COc1cccc(C2c3cc4c(cc3OC(NNC(N)=O)C2C)OCO4)c1O (stereo not drawn) ; yields the recorded call
A: 0 (no)

Q: Per the records of this test, what outcome belongs to `NCCCCN(CCCN)C(=O)c1ccccc1` ?
A: 0 (no)

Q: Would you mind telling me which call this test gave `CC(C)(CO[C@H]1C[C@H]2CC[C@@]1(C)C2(C)C)[N+](=O)[O-]` ?
A: 0 (no)

Q: Lab log entry: `CCCCS(=O)(=O)Nc1ccc(Nc2c3ccccc3nc3ccccc23)c(OC)c1` — outcome as called in the assay?
A: 0 (no)

Q: Short answer needed: outcome of this test for CC(=O)CCC1(c2ccccc2)OC(=O)C(C#N)=C1c1ccccc1 (stereo not drawn) ?
A: 0 (no)

Q: Check the results log: what was the call for `c1ccc(/N=C2\c3ccccc3CN2c2ccccc2)cc1` ?
A: 0 (no)

Q: Recorded test call requested for `COc1ccc2oc(=N)c(C(=O)Nc3ccccn3)cc2c1`
A: 0 (no)

Q: Lab log entry: `O=CN1CCN(c2ccc3ccc(O)nc3n2)CC1` — outcome as called in the assay?
A: 0 (no)

Q: Query: recorded result category for `Cc1ccc(P(c2ccc(C)cc2)c2ccc(C)cc2)cc1` in this test
A: 0 (no)

Q: Test call, this compound: `N=C(N)SCCc1ccncc1`
A: 0 (no)

Q: Identify the outcome logged in this assay for the compound shown: `O=S(=O)(O)c1cc(O)c(/N=N/c2ccc3ccccc3c2O)c2ccccc12`
A: 0 (no)

Q: What is the recorded call for this compound in the test? CC(=O)OC12CCCCC1C1(CCCC1)NC2=O (stereo not drawn)
A: 0 (no)
